Provenance of the data: BigSolDB 2.1

details: in n-butanol, 283.15 K
readout_type: solubility (mole fraction)

INSERT INTO assay_data (given_smiles, val) VALUES
  ('NCCCCCCN', 0.389);

* * *

details: in isobutanol, 278.15 K
readout_type: solubility (mole fraction)

INSERT INTO measurements (given_smiles, val) VALUES
  ('NCCCCCCN', 0.193);

* * *

conditions: in n-butanol, 293.15 K
readout_type: solubility (mole fraction)

INSERT INTO assay_data (given_smiles, val) VALUES
  ('NCCCCCCN', 0.508);

* * *

conditions: in n-hexane, 283.15 K
readout_type: solubility (mole fraction)

INSERT INTO results (given_smiles, readout_type, val) VALUES
  ('NCCCCCCN', 'solubility (mole fraction)', 0.0149);
